assayed.target: Gal(b1-3)GlcNAc(b1-6)Gal(b1-4)GlcNAc
test.method.notes: glycan array binding signal (z-score within array); higher = stronger binding
condition.label: glycan notation: IUPAC condensed, linker removed
The entries come from a sample that favours the strongest signals as a whole.

binder	glycan array binding signal (z-score)
LSECtin (Homo sapiens), Q6UXB4 (protein) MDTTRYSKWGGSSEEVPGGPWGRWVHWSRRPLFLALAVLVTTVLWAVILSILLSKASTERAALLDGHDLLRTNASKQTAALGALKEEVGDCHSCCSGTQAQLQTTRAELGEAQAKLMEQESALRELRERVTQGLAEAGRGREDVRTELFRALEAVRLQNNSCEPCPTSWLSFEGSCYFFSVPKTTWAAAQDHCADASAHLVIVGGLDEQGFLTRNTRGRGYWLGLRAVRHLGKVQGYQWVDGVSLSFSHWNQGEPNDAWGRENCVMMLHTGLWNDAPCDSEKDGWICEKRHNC	-0.137
